SYSTEM: Wee1-like protein kinase (Homo sapiens)
EXPERIMENT: Wee1 degradation inhibitors, primary screen, cell-based, HeLa, Wee1K328M-luciferase, luminescence (AID 1321);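 further: cells exposed to compound for 20 h before luminescence read; 0% = DMSO alone and 100% = MG132 at 30 µM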
TEST_CONDITIONS: HeLa Luc-Wee1K328M stability, at 5 µM, hits give high values, 100% = proteasome inhibitor MG132 effect
The whole screen tested about 220,000 compounds, of which about 2,600 (1.2%) were called active. Shown is part of a subset that was picked to be rich in actives.
The following compounds are listed with their measured reporter increase values.
Expressed in %, but write only the number.

Before answering, review these 4 worked examples.
{"SAMPLE_SMILES": "CC(C)(C)C(=O)Cn1c(NCCO)nc2ccccc21", "UNIT_NAME": "%", "OBS_VALUE": -0.8}
{"SAMPLE_SMILES": "COc1cc(OC)cc(/C(N)=N/O)c1", "UNIT_NAME": "%", "OBS_VALUE": 5.93}
{"SAMPLE_SMILES": "OCCNc1nc2ccccc2n1-c1ncnc2sc3c(c12)CCC3", "UNIT_NAME": "%", "OBS_VALUE": 13.6}
{"SAMPLE_SMILES": "O=C(O)[C@@H]1CCCN1c1ncnc2sc3c(c12)CCC3", "UNIT_NAME": "%", "OBS_VALUE": 3.81}

Task: reporter increase for CS(=O)(=O)c1sc(C(=O)NC(=S)Nc2ccc(OC(F)(F)F)cc2)c2c1C=CCC2 ?
Output: 3.21

---

The following compounds are listed with their measured reporter increase values.
SYSTEM: Wee1-like protein kinase (Homo sapiens) (UniProt P30291)
EXPERIMENT: Wee1 degradation inhibitors, primary screen, cell-based, HeLa, Wee1K328M-luciferase, luminescence (AID 1321);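 further: cells exposed to compound for 20 h before luminescence read; 0% = DMSO alone and 100% = MG132 at 30 µM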
TEST_CONDITIONS: HeLa Luc-Wee1K328M stability, at 5 µM, hits give high values, 100% = proteasome inhibitor MG132 effect
The campaign covered roughly 220,000 compounds. About 2,600 (1.2%) were called active. For the sample, actives were picked, then their nearest neighbours and some compounds at random.
Expressed in %, but write only the number.

Task: reporter increase for Cc1nnc2n1N=C(c1ccc3c(c1)NC(=O)CO3)CS2 ?
Output: -1.74

Task: reporter increase for CN(C)CCCN(Cc1cc2cc3c(cc2[nH]c1=O)OCCO3)C(=O)NC1CCCCC1 ?
Output: -1.12

Task: reporter increase for COc1cc(OC)c(OC)cc1/C=N/Nc1ncnc2c1[nH]c1ccc(C)cc12 ?
Output: 0.2

Task: reporter increase for Cn1nc(C(F)(F)F)cc1C(=O)O ?
Output: -1.44

Task: reporter increase for CCN(CC)CCn1c(N)c(S(=O)(=O)c2ccccc2)c2nc3ccccc3nc21 ?
Output: 12.4

---

SYSTEM: Wee1-like protein kinase (Homo sapiens)
EXPERIMENT: Wee1 degradation inhibitors, primary screen, cell-based, HeLa, Wee1K328M-luciferase, luminescence (AID 1321);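 further: cells exposed to compound for 20 h before luminescence read; 0% = DMSO alone and 100% = MG132 at 30 µM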
TEST_CONDITIONS: HeLa Luc-Wee1K328M stability, at 5 µM, 100% = proteasome inhibitor MG132 effect
Among all 220,000 compounds or so, about 2,600 (1.2%) were called active.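 The calls were made as follows: active = activation above the mean of all tested compounds plus 3 SD, set per screening run (cut at about 8.8% in these data); inactive = the rest.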 The full list was thinned out, with actives kept by preference.
Valid outcomes are listed here; reply with one: active, inactive

Task: Give the logged outcome of this assay for the following molecule: CC(Sc1nnnn1C1CCCCC1)C(=O)O (stereo unspecified)
Output: inactive

Task: Give the logged outcome of this assay for the following molecule: Clc1ccc(CSc2nnc3c(n2)[nH]c2ccccc23)cc1
Output: inactive

Task: Give the logged outcome of this assay for the following molecule: CC(NC(=O)C(C)(C)C)C(c1cccs1)N1CCN(Cc2ccccc2)CC1 (stereo unspecified)
Output: inactive

Task: Give the logged outcome of this assay for the following molecule: CCOC(=O)c1c(/N=C/C2C(=O)CC(C)(C)CC2=O)sc(C)c1C
Output: active

Task: Give the logged outcome of this assay for the following molecule: Cc1nn(-c2ccccc2)c(=O)c2noc(C)c12
Output: inactive

Task: Give the logged outcome of this assay for the following molecule: Cc1ccc(-c2nc3ccccc3[nH]2)cc1N
Output: inactive

Source listed as PubChem BioAssay AID1321.
